Test: yeast display, Sf9 membrane polyspecificity reagent, FACS + sequencing; frameworks hold sequencing errors

{"ITEM SEQUENCE": "QVQLVESGGGLVQAGGSLRLSCAASGSTFDYYARGGYRQAPGKERELVAAISRTGGRTYYADSVKGRFTISRDNAKNTVNLQMNSLKPEDTAVYNCNAVTRIGGGDYDYWGQGTQVTVSS", "polyreactivity (PSR sort gate)": "low polyreactivity"}
{"ITEM SEQUENCE": "QVQLVESGGGLVQAGGSLRLSCAASGRTFWYYAMGWSRQAPGKERELVAGITFTGGRTYYADSVKGRFTISRDNAKNTVYLQMNSLKPEDTAVYYCAAAGLDVGRKDRDGYWGQGTQVTVSS", "polyreactivity (PSR sort gate)": "low polyreactivity"}
{"ITEM SEQUENCE": "QVQLVESGGGLVQAGGSLRLSCAASGSTFYRNAMGWYRQAPGKERELVAGISRRGGSTYYADSVKGRFTISRDNAKNTVYLQMNSLKPEDTAVYYCNADYPGIPHNDYWGQGTQVTVSS", "polyreactivity (PSR sort gate)": "low polyreactivity"}
{"ITEM SEQUENCE": "QVQLVESGGGLVQAGGSLRLSCAASGSIFYHNAMGWYRQAPGKERELVATISWRSASTYYADSVKGRFRISRDNAKNTVYLQMNSLKPEDTAVYYCAAKLQYRQYYYRYGYDYWGQGTQVTVSS", "polyreactivity (PSR sort gate)": "high polyreactivity"}
{"ITEM SEQUENCE": "QVQLVESGGGLVQAGGSLRLSCAASGRIFFTYAMGWYRQAPGKERELVASITGSGGSTYYADSVKGRFTISRDNAKNTVYLQMNSLKPEDTAVYYCAAALFRRQLYRKFYYWGQGTQVTVSS", "polyreactivity (PSR sort gate)": "low polyreactivity"}
{"ITEM SEQUENCE": "QVQLVESGGGLVQAGGSLRLSCAASGSTFGFNAMGWYRQAPGKERELVASITSGDSTYYADSVKGRFTISRDNAKNTVYLQMNSLKPEDTAVYYCAKVGGGGQAGDNPILSDYWGQGTQVTVSS", "polyreactivity (PSR sort gate)": "low polyreactivity"}
{"ITEM SEQUENCE": "QLQLVESGGGLVQAGGSLRLSCAASGLTFYSYPMGWYRQARGKERELVATIRSSGGSSYYADSVKGRFTISRDNAKNTVYLQMNSLKPEDTAVYYCAARWGPYAFTYVRTYDYWGHGTQVTVSS", "polyreactivity (PSR sort gate)": "low polyreactivity"}
{"ITEM SEQUENCE": "QVQLVESGGGLVQAGGSLRLSCAASGSISIGYTMGWYRQAPGKERELVATISWSGGNTYYADSVKGRFTISRDNAKNTVYLQMNSLKPEDTAVYYCAGRWYYYPLLYDYWGQGTQVTVSS", "polyreactivity (PSR sort gate)": "low polyreactivity"}
{"ITEM SEQUENCE": "QVQRVESGGGLVQAGGSLRLTSAGSGLTFILNAMGWYRQAPGKEREFVAAISRSGVRTYYADSVKGRFTISRDNAKNTVYLQMNSLKPEDTAVYYCAAAAQRGSKPRVELDYWGQGSQVTVSS", "polyreactivity (PSR sort gate)": "high polyreactivity"}
{"ITEM SEQUENCE": "QVQLVESGGGLDQAGGSLRLSCAASGRIFRPNAMGWYRQAPGKERELVAAITSGGSTNYADSVKGRFTISRDNAKNTVYLQMNSLKPEDNAVYYCAKGYKYGKNIYYYWGQGTQVTVSS", "polyreactivity (PSR sort gate)": "high polyreactivity"}
{"ITEM SEQUENCE": "QVQLVESGGGLVQAGGSLRLSCAASGSIFPGYTMGWYRQAPGKERELVAAITSSGGSTYYADSVKGRFTISRDNAKNTVYLQMNSLKPEDTAVYYCAADTTNYFDPFDYWGQGTQVTVSS", "polyreactivity (PSR sort gate)": "low polyreactivity"}
{"ITEM SEQUENCE": "QVQLVESGGGLVQAGGSLRLSCAPSGSTFTSYAMGWYRQAPGKERELVAAITYGSGTTYADSVKGRFTISRDNAKNTVYLQMNSLKPEDTAVYYCAADFYYPVLGHGFPTYEYDYWGQGTQVTVSS", "polyreactivity (PSR sort gate)": "low polyreactivity"}
{"ITEM SEQUENCE": "QVQLVESGGGLVQAGGSLRLSCAASGRTFRYYAMGWYRQAPGKESELVAAIRTRGASTYYADSVKGRFTISRDNAKNTVYLQMNSLKPEDTAVYYCAKRAHFSSARHVYYIYDYWGQGTQVTVSS", "polyreactivity (PSR sort gate)": "low polyreactivity"}
{"ITEM SEQUENCE": "QVQLVESGGGLVQAGGSLRLSCAPSGSTFNYNAMVWYRQAPGKERELVARISWRGGSTYYADSVKGRFTISRDNAKNTVYLQMNSLKPEATAVYYCAATRYWYGSTYDYWGQGTQVTVSS", "polyreactivity (PSR sort gate)": "high polyreactivity"}
{"ITEM SEQUENCE": "QVQLVESGGGLVQAGGSLRLSCAASGSTFRTNGMGWYRQAPGKERELVAAITRGTSTNYADSVKGRFTISRDNAKNTVYLQMNSLKPEDTAVYYCAADVTGGRKYDYWGQGTQVTVSS", "polyreactivity (PSR sort gate)": "low polyreactivity"}
{"ITEM SEQUENCE": "QVQLVESGGALVQAGGSLRLSCAASGRTFAKYAMGWYRQAPGKERELFAAINSSGGSTYYADSVKGRFTISRDNAKNTVYLQMNSLKPEDTAVYYCADLGIGSYRRYSGYDYWGQGTQVTVSS", "polyreactivity (PSR sort gate)": "low polyreactivity"}

Numbers sourced from the nanobody polyreactivity screen of Harvey et al. (2022).
